testedTarget: GKRP (Glucokinase Regulatory Protein) with human His-hepatic GK (Homo sapiens)
Sequence (Q14397 whole entry): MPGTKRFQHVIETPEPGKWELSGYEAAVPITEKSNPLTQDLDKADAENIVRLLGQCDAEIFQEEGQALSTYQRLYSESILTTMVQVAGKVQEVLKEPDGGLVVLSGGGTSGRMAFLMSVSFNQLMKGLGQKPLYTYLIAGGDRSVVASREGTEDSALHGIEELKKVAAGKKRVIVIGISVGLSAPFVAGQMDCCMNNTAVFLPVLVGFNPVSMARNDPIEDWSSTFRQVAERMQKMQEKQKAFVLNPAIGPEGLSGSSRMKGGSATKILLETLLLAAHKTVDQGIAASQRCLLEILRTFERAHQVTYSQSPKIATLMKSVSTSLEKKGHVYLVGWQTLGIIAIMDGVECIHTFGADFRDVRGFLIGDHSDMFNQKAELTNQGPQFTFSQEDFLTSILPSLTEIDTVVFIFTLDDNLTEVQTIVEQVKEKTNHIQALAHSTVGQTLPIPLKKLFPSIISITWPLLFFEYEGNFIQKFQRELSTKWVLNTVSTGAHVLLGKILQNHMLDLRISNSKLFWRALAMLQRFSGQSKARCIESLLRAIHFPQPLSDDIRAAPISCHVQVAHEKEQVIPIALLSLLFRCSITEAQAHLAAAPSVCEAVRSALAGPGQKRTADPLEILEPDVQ
assayRemarks: biochemical
measurementConditions: 13C-glucose-6-phosphate formation; 280 nM GKRP (10×), 30 nM GK (5×); read-out: GK-GKRP EC50 (LC MS/MS-2)
Please note: EC50 exactly at 70 nM is 0. Only values below 70 nM get 1.

Completed entries (count: 4):
{"compound": "CC(O)(c1ccc(N2CCN(S(=O)(=O)c3cccs3)C[C@@H]2CN(C2CCC2)S(C)(=O)=O)cc1)C(F)(F)F (stereo partly drawn)", "group": 0}
{"compound": "CCC(C#Cc1cc(C(O)(C(F)(F)F)C(F)(F)F)ccc1N1CCC(S(=O)(=O)c2ccccc2)CC1)OC (racemic)", "group": 0}
{"compound": "CC(C)CN(C[C@H]1CN(S(=O)(=O)c2ccc(N)nc2)CCN1c1ncc(C(O)(C(F)(F)F)C(F)(F)F)cn1)S(C)(=O)=O", "group": 1}
{"compound": "O=S(=O)(c1cccs1)N1CCN(c2ncc(C(O)(C(F)(F)F)C(F)(F)F)cn2)[C@@H](CN2C3COCC2C(O)C3)C1 (single isomer, unassigned) [Example 79 Peak #2]", "group": 0}

Does CC(O)(c1ccc(N2CCN(S(=O)(=O)c3cccs3)C[C@@H]2CN2CCC(=O)CC2)cc1)C(F)(F)F (mixture of isomers) have EC50 strictly under 70 nM? 0

Does `O=S(=O)(c1cccs1)N1CCN(c2ccc(C(O)(C(F)(F)F)C(F)(F)F)cc2C#CCCO)CC1` have EC50 strictly under 70 nM? 0

* * *

testedTarget: GKRP (Glucokinase Regulatory Protein) with human His-hepatic GK (Homo sapiens)
assayRemarks: GKRP NADPH Coupled Assay
Type: biochemical
measurementConditions: GK-GKRP EC50 (NADPH-coupled), indirect measure of glucose-6-phosphate, fluorescence; 1 μM GKRP (10×), 20 nM GK (5×)
Experimental: This assay is used to directly measure the formation of ^13C-glucose-6-phosphate from ^13C-glucose by liquid chromatography-mass spectrometry (LC MS/MS). Begin by preparing the following solutions: Compound Buffer (CB): 50 mM Tris, pH 7.5/4 mM MgCl2/6% DMSO/fresh 10 mM DTT from 1M frozen stock. Enzyme Buffer (EB): 50 mM Tris, pH 7.5/4 mM MgCl2/6% DMSO/fresh 0.1% BSA/fresh 0.01% Brij-35 (10% BSA and 1% Brij-35 stock). […]
Structures can show the parent of a compound that is named as a salt.
Please note: EC50 exactly at 1000 nM is no. Only values below 1000 nM get yes.

{"compound": "Cc1cccc(CC2CN(S(=O)(=O)c3cccs3)CCN2c2ccc(C(O)(C(F)(F)F)C(F)(F)F)cc2)c1 (racemic) [Example 42, hydrochloride]", "testedTarget": "GKRP (Glucokinase Regulatory Protein) with human His-hepatic GK (Homo sapiens)", "group": "yes"}
{"compound": "C[C@H]1CN(S(=O)(=O)c2ccccc2)CCN1c1ccc(C(O)(C(F)(F)F)C(F)(F)F)cc1", "testedTarget": "GKRP (Glucokinase Regulatory Protein) with human His-hepatic GK (Homo sapiens)", "group": "yes"}
{"compound": "O=S(=O)(c1ccccc1)c1ccc(-c2ccc(C(O)(C(F)(F)F)C(F)(F)F)cc2)cc1", "testedTarget": "GKRP (Glucokinase Regulatory Protein) with human His-hepatic GK (Homo sapiens)", "group": "no"}
{"compound": "CC(O)(c1ccc(N2CCN(S(=O)(=O)c3cccs3)CC2CC2CCOCC2)cc1)C(F)(F)F (single isomer, unassigned) [Example 37 Peak #3]", "testedTarget": "GKRP (Glucokinase Regulatory Protein) with human His-hepatic GK (Homo sapiens)", "group": "no"}

Next, consider the following compound.
Does CC(O)(c1ccc(N2CCN(S(=O)(=O)c3cccs3)CC2CC2CCOCC2)cc1)C(F)(F)F (single isomer, unassigned) [Example 37 Peak #4] have EC50 strictly under 1000 nM? no
